Every entry's value here was drawn from paper PMC3733360.

Target: T1, Snc2pS (soluble Snc2p, amino acids 1-93), wild type (yeast, UniProt P33328 1-93)
T1 sequence (looked up): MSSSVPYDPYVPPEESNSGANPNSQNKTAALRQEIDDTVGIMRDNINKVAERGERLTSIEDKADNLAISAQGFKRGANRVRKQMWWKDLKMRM
Test: EPR line shape
ENDPOINT_NAME: percent of SN2 in an unstructured conformation (not in the complex)

{"BINDER": "Sec9c D620C, spin labeled with MTSSL (SN2) (domain or fragment, yeast, UniProt P40357 401-651, looked up, MTSSL nitroxide spin label on cysteine 620) QRGYKTFEEIQKEEEARQQQEEDEAVDEIKQEIKFTKQSSVASTRNTLKMAQDAERAGMNTLGMLGHQSEQLNNVEGNLDLMKVQNKVADEKVAELKKLNRSILAVHVSNPFNSKRRRREREEQLKNRKIEEKLMREQTSQQLSQSTQRIEGAMNANNNISEVRERYQRKNVLEKAKRYQFENDEEDDEMELEIDRNLDQIQQVSNRLKKMALTTGKELCSQQKRLNNIEESTDDLDINLHMNTNRLAGIR", "RESULT": "~60%"}
